target: human mAChR M1 (Homo sapiens, UniProt P11229); test: mAChR M1 cell-based functional assay (calcium mobilization), agonist mode: compound alone, Emax relative to acetylcholine maximum; settings: human mAChR M1
Sequence (P11229 whole entry): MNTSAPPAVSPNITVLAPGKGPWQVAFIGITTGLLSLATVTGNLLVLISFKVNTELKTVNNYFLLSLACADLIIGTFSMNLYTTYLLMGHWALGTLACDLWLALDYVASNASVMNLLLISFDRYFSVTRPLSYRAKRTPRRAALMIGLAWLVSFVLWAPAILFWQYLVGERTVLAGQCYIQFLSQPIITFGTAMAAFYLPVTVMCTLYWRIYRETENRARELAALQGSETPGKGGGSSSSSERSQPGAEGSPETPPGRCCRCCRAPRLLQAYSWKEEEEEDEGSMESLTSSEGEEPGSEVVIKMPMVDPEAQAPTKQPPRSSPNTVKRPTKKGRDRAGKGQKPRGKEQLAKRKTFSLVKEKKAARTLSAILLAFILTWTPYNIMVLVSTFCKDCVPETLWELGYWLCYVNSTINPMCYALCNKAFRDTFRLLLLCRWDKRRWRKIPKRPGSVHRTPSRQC
Give measured pEC50 for each item. Keep answers brief.
Numbers only, as −log10 of the molar value.

[[record]]
chemical_structure = "[2H]C([2H])([2H])Oc1cnc2c(c1)C(=O)N(Cc1ccc(-c3cccc4nn(C)cc34)cc1F)C2([2H])[2H]"
reported_measurement = 5.31

[[record]]
chemical_structure = "[2H]C1([2H])c2ncccc2C(=O)N1Cc1c(F)cc(-c2ccc(OCC)c3nn(C([2H])([2H])[2H])cc23)cc1F"
reported_measurement = 5.23


For each of the items listed, what is its pEC50?
1. [2H]C1([2H])c2ncccc2C(=O)N1Cc1c(F)cc(-c2ccc(OC3CC3)c3nn(C)cc23)cc1C1CC1
2. [2H]C1([2H])c2ncccc2C(=O)N1Cc1c(F)cc(-c2ccc(OC)c3nn(C([2H])([2H])[2H])cc23)cc1C1CC1
3. [2H]C1([2H])c2ncccc2C(=O)N1Cc1c(F)cc(-c2ccc(OCC)c3nn(C)cc23)cc1F
4. [2H]C1([2H])c2ncccc2C(=O)N1Cc1c(F)cc(-c2ccc(OC3COC3)c3nn(C)cc23)cc1F
5. [2H]C1([2H])c2ncccc2C(=O)N1Cc1c(F)cc(-c2cc(C)cc3nn(C)cc23)cc1F

[5.49, 5.59, 5.12, 5.30, 5.26]

Values from patent US20240228489A1
